Reported Inhibition at 100 μM values for a set of compounds
Test system: Botrytis cinerea (B05.10)
Test: Resazurin antifungal assay of 180 alpha-factor peptide variants towards Botrytis (Example 2)
Assay type: cell-based
Conditions: % inhibition of fungal growth, Botrytis conidia, peptide 100 μM, resazurin
Peptide text beside a SMILES is read from it.
The reply should be a number in %, with the unit left off.

{"columns": ["compound", "Inhibition at 100 μM, %"],
 "data": [
  ["CC[C@H](C)[C@H](NC(=O)[C@H](CCCCN)NC(=O)[C@H](Cc1ccccc1)NC(=O)[C@H](CCC(=O)O)NC(=O)[C@H](CC(C)C)NC(=O)[C@H](CO)NC(=O)[C@H](Cc1c[nH]cn1)NC(=O)[C@@H](N)Cc1c[nH]c2ccccc12)C(=O)NCC(=O)N[C@@H](CCC(N)=O)C(=O)NCC(=O)N[C@@H](CCSC)C(=O)N[C@@H](Cc1ccc(O)cc1)C(=O)O [compound 89] (H-WHSLEFKIGQGMY-OH; N-terminus and C-terminus assumed)", 100]
]}

Attention now turns to another entry.
Asked: Supply Inhibition at 100 μM value. Item: CSCC[C@H](NC(=O)[C@@H]1CCCN1C(=O)[C@H](CCC(N)=O)NC(=O)CNC(=O)[C@H](CC(C)C)NC(=O)[C@H](CCCCN)NC(=O)[C@H](CC(C)C)NC(=O)[C@H](CCC(N)=O)NC(=O)[C@H](CC(C)C)NC(=O)[C@@H](NC(=O)[C@H](CCCCN)NC(=O)[C@@H](N)CCCCN)C(C)C)C(=O)N[C@@H](Cc1ccc(O)cc1)C(=O)O [compound 115] (H-KKVLQLKLGQPMY-OH; N-terminus and C-terminus assumed)
Given back: 99.72
